# TARGET_DESC: T1, GIP Receptor (Homo sapiens, UniProt P48546)
# T1 construct: host or cells: HEK293T
# T1 sequence (P48546 22-466): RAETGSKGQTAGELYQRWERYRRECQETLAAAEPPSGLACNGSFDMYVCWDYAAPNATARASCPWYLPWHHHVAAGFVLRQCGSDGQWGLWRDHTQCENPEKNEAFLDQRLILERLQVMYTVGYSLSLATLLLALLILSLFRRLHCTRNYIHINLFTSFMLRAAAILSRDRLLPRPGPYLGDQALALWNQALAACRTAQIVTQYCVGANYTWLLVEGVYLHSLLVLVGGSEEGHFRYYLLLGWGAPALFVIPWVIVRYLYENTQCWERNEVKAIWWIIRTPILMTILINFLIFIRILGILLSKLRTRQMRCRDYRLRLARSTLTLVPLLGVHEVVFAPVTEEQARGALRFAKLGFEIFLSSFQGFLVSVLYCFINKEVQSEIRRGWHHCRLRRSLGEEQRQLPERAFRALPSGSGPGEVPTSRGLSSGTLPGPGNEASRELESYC
# EXPERIMENT: GIP receptor-mediated bioluminescence in HEK293T cells with chimeric promiscuous G protein (FIG. 5, Table II)
# Assay type: cell-based
# STUDY_CONDITIONS: signal induced by maximal GIP (1 μM) divided by signal induced by buffer alone
# Description: However, coexpression of GIP receptor with a chimeric G protein containing sequences from Gαs and Gαq enable the GIP receptor to stimulate calcium flux. […] Signal to background ratio was calculated as the signal induced by maximal GIP (1 μM) divided by the signal induced by buffer alone. The EC50 value for calcium was determined as described above for FIG. 2 for mitochondrially targeted photoproteins transfected into HEK293T cells in the absence of a cotransfected GPCR or G protein. […]
OBSERVED_PROPERTY: Signal: background with GIP

- MOLECULE: "Cyto-clytin K168E: K168E modified Clytin amino acid sequence, SEQ ID NO:11; cytosolic (protein) MADTASKYAVKLRPNFDNPKWVNRHKFMFNFLDINGDGKITLDEIVSKASDDICAKLGATPEQTKRHQDAVEAFFKKIGMDYGKEVEFPAFVDGWKELANYDLKLWSQNKKSLIRDWGEAVFDIFDKDGSGSISLDEWKAYGRISGICSSDEDAEKTFKHCDLDNSGELDVDEMTRQHLGFWYTLDPNADGLYGNFVP"
  OBSERVED_PROPERTY: "Signal: background with GIP"
  READING: 66.4
